# Assayed Target: full-length beta-Catenin (Uniprot ID P35222) (Homo sapiens, UniProt P35222)
# Construct: 10 nM full-length beta-Catenin (Uniprot ID P35222)
# Sequence (P35222 whole entry): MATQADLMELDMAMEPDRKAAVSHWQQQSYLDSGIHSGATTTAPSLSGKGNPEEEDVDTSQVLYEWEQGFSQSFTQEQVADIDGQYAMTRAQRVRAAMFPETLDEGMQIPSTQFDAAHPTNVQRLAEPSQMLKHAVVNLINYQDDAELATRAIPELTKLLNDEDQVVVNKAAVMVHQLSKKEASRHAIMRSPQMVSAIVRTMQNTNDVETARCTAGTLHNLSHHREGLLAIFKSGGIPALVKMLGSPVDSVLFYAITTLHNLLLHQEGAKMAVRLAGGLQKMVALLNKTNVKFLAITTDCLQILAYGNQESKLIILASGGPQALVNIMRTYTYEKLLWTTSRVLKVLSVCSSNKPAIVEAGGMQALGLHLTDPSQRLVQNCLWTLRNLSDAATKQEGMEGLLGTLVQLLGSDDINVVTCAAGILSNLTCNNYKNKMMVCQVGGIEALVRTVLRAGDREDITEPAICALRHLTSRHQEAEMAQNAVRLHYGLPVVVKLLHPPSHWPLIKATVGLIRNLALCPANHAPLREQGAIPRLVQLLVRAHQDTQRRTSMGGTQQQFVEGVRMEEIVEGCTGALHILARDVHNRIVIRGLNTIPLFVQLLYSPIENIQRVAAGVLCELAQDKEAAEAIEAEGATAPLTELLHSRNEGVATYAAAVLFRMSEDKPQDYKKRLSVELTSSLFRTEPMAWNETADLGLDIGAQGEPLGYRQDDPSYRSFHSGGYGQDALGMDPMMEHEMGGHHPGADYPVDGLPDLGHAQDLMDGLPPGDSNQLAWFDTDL
# Run Description: Fluorescence polarization IC50 (beta-catenin / 5FAM-TCF4 10-53 competition)
# Assay type: binding
# Setup Conditions: fluorescence polarization; read-out: beta-Catenin FP IC50
Measured Attribute: pIC50
Lab note: report pIC50 as minus log10 of the concentration in molar units, number only.

Here is how some compounds turned out for pIC50.
- Compound: "CC(=O)N1CCC[C@]12CC=CCCCC1(CCCC=CCCCOC(=O)N3CC[C@@](C(=O)N[C@@H](Cc4ccsc4)C(=O)N[C@@H](Cc4csc5ccccc45)C(=O)N[C@@H](CC(C)C)C(N)=O)(C3)NC(=O)[C@H](CC(N)=O)NC(=O)[C@H](Cc3ccccc3)NC(=O)[C@H](C)NC(=O)[C@H](C)NC(=O)[C@H]([C@@H](C)O)NC(=O)[C@H](CC(N)=O)NC1=O)NC(=O)[C@H](CC(C)(C)C)NC(=O)[C@H](CC(=O)O)NC2=O (some centres unmarked) [I-1880]"
  Observed: 6.06
- Compound: "CC(=O)N1CCC[C@]12CC=CCCCC1(CCCC=CCCCCCC[C@@](C)(C(=O)N[C@@H](Cc3ccccc3)C(=O)N[C@@H](Cc3csc4ccccc34)C(=O)N[C@@H](CCC(N)=O)C(N)=O)NC(=O)[C@H](CC(N)=O)NC(=O)[C@H](Cc3ccccc3)NC(=O)[C@H](C)NC(=O)[C@H](C)NC(=O)[C@H](CC(=O)O)NC(=O)[C@H](CC(=O)O)NC1=O)NC(=O)[C@H](C(C)C)NC(=O)[C@H](CC(=O)O)NC2=O (some centres unmarked) [I-566]"
  Observed: 7.12

Short answer please: pIC50, full-length beta-Catenin (Uniprot ID P35222) (Homo sapiens, UniProt P35222), entry CC(=O)N1CCC[C@]12CC=CCCCC1(CCCC=CCCCCCC[C@@](C)(C(=O)N[C@@H](Cc3ccccc3)C(=O)N[C@@H](Cc3csc4ccccc34)C(N)=O)NC(=O)[C@H](CC(N)=O)NC(=O)[C@H](Cc3ccccc3)NC(=O)[C@H](C)NC(=O)[C@H](C)NC(=O)[C@H](CCC(=O)O)NC(=O)[C@H](CC(=O)O)NC1=O)NC(=O)[C@H](CC(C)(C)C)NC(=O)[C@H](CC(=O)O)NC2=O (some centres unmarked) [I-712] 7.04

Short answer please: pIC50, full-length beta-Catenin (Uniprot ID P35222) (Homo sapiens, UniProt P35222), entry CC(=O)N1CCC[C@]12CC=CCCCC1(CCCC=CCCCOC(=O)N3CC[C@@](C(=O)N[C@@H](Cc4ccsc4)C(=O)N[C@@H](Cc4csc5ccccc45)C(=O)N[C@H](C)C(N)=O)(C3)NC(=O)[C@H](Cc3ccccc3)NC(=O)[C@H](Cc3ccccc3)NC(=O)[C@H](C)NC(=O)[C@H](C)NC(=O)[C@H](Cc3cccc(C(=O)O)c3)NC(=O)[C@H](CC(=O)O)NC1=O)NC(=O)[C@H](CC(C)(C)C)NC(=O)[C@H](CC(=O)O)NC2=O (some centres unmarked) [I-2094] 7.55

Short answer please: pIC50, full-length beta-Catenin (Uniprot ID P35222) (Homo sapiens, UniProt P35222), entry CCCC[C@@H]1NC(=O)[C@H](Cc2ccccc2)NC(=O)[C@H](C)NC(=O)C(C)(C)NC(=O)[C@H](Cc2cccc(C(=O)O)c2)NC(=O)[C@H](CC(=O)O)NC(=O)C2(CCCC=CCCCOC(=O)N3CC[C@@](C(=O)N[C@@H](Cc4ccsc4)C(=O)N[C@@H](Cc4csc5ccccc45)C(=O)N[C@@H](CCC(=O)N4CCN(C(C)=O)CC4)C(N)=O)(C3)NC1=O)CCCC=CC[C@]1(CCCN1C(C)=O)C(=O)N[C@@H](CC(=O)O)C(=O)N[C@@H](CC(C)(C)C)C(=O)N2 (some centres unmarked) [I-2556] 8.22
